The reported measurements were obtained from BigSolDB 2.1.

details: in ethanol, 293.15 K

compoundStructure: Nc1cccc(S(=O)(=O)c2cccc(N)c2)c1
solubility (mole fraction): 0.00297

---

settings: in ethylene glycol, 308.15 K

compoundStructure: Nc1cccc(S(=O)(=O)c2cccc(N)c2)c1
solubility (mole fraction): 0.0101

---

details: in n-butanol, 323.15 K
parameter: solubility (mole fraction)

compoundStructure: Nc1cccc(S(=O)(=O)c2cccc(N)c2)c1
parameter: solubility (mole fraction)
testResult: 0.00396

---

details: in water, 328.15 K

compoundStructure: Nc1cccc(S(=O)(=O)c2cccc(N)c2)c1
solubility (mole fraction): 0.000198

---

details: in n-propanol, 283.15 K

compoundStructure: Nc1cccc(S(=O)(=O)c2cccc(N)c2)c1
solubility (mole fraction): 0.00142

---

conditions: in isobutanol, 303.15 K

compoundStructure: Nc1cccc(S(=O)(=O)c2cccc(N)c2)c1
solubility (mole fraction): 0.00115

---

details: in isobutanol, 288.15 K
parameter: solubility (mole fraction)

compoundStructure: Nc1cccc(S(=O)(=O)c2cccc(N)c2)c1
testResult: 0.000665

---

conditions: in 1,4-dioxane, 288.15 K

compoundStructure: Nc1cccc(S(=O)(=O)c2cccc(N)c2)c1
solubility (mole fraction): 0.00462

---

details: in isopropanol, 298.15 K

compoundStructure: Nc1cccc(S(=O)(=O)c2cccc(N)c2)c1
solubility (mole fraction): 0.00196

---

conditions: in ethanol, 308.15 K
parameter: solubility (mole fraction)

compoundStructure: Nc1cccc(S(=O)(=O)c2cccc(N)c2)c1
testResult: 0.00492

---

details: in DMF, 313.15 K
parameter: solubility (mole fraction)

compoundStructure: Nc1cccc(S(=O)(=O)c2cccc(N)c2)c1
parameter: solubility (mole fraction)
testResult: 0.146

---

details: in 1,4-dioxane, 293.15 K
parameter: solubility (mole fraction)

compoundStructure: Nc1cccc(S(=O)(=O)c2cccc(N)c2)c1
testResult: 0.00538

---

conditions: in ethyl acetate, 318.15 K

compoundStructure: Nc1cccc(S(=O)(=O)c2cccc(N)c2)c1
solubility (mole fraction): 0.037

---

conditions: in DMF, 288.15 K
parameter: solubility (mole fraction)

compoundStructure: Nc1cccc(S(=O)(=O)c2cccc(N)c2)c1
testResult: 0.0916

---

conditions: in ethylene glycol, 313.15 K

compoundStructure: Nc1cccc(S(=O)(=O)c2cccc(N)c2)c1
solubility (mole fraction): 0.012

---

details: in n-butanol, 313.15 K
parameter: solubility (mole fraction)

compoundStructure: Nc1cccc(S(=O)(=O)c2cccc(N)c2)c1
testResult: 0.00294

---

conditions: in n-butanol, 328.15 K
parameter: solubility (mole fraction)

compoundStructure: Nc1cccc(S(=O)(=O)c2cccc(N)c2)c1
testResult: 0.00452

---

settings: in n-propanol, 288.15 K
parameter: solubility (mole fraction)

compoundStructure: Nc1cccc(S(=O)(=O)c2cccc(N)c2)c1
parameter: solubility (mole fraction)
testResult: 0.00152

---

conditions: in n-butanol, 288.15 K

compoundStructure: Nc1cccc(S(=O)(=O)c2cccc(N)c2)c1
solubility (mole fraction): 0.00121

---

conditions: in n-propanol, 313.15 K
parameter: solubility (mole fraction)

compoundStructure: Nc1cccc(S(=O)(=O)c2cccc(N)c2)c1
parameter: solubility (mole fraction)
testResult: 0.00356

---

settings: in cyclohexane, 328.15 K
parameter: solubility (mole fraction)

compoundStructure: Nc1cccc(S(=O)(=O)c2cccc(N)c2)c1
testResult: 4.86e-05

---

settings: in 1,4-dioxane, 328.15 K
parameter: solubility (mole fraction)

compoundStructure: Nc1cccc(S(=O)(=O)c2cccc(N)c2)c1
parameter: solubility (mole fraction)
testResult: 0.0194
